Test system: primary equine dermal fibroblasts PriFi2
PROCEDURE_DETAILS: crystal violet staining assay (CVS), proliferation
Assay type: cell-based, horse
STATED_CONDITIONS: PriFi2, 96 h; mean (95% CI)
pIC50: −log10 of the molar value.

COMPOUND | ASSAY_SYSTEM | CENSORING_OPERATOR | pIC50
C=C(C)[C@@H]1CC[C@]2(C(=O)OCC(N)(CO)CO)CC[C@]3(C)[C@H](CC[C@@H]4[C@@]5(C)CC[C@H](OC(C)=O)C(C)(C)[C@@H]5CC[C@]43C)[C@@H]12 [NVX-207] | primary equine dermal fibroblasts PriFi2 | > | 6.00
C=C(C)[C@@H]1CC[C@]2(COS(N)(=O)=O)CC[C@]3(C)[C@H](CC[C@@H]4[C@@]5(C)CC[C@H](OS(N)(=O)=O)C(C)(C)[C@@H]5CC[C@]43C)[C@@H]12 [BBS] | primary equine dermal fibroblasts PriFi2 | = | 4.80
